System: HEK-293T
Assay: Multiplex assay against HEK293T
Type: toxicity, cell-based
Details: human, 12 h, 10 µM, compound concentration 10 uM, replicate 1
Rule for this label: TRUE means Total Cell Count is less than 500; FALSE means Total Cell Count is at least 500.

## Input Is the reported Total Cell Count for "CNc1oc(-c2cccc3ccccc23)nc1C#N" strictly below 500?
## Output FALSE

## Input Threshold test, Total Cell Count < 500: O=C(O)c1ccc2cc(-c3ccc(O)c(C45CC6CC(CC(C6)C4)C5)c3)ccc2c1 [O-DEMETHYLATED ADAPALENE]
## Output TRUE

## Input # check: Total Cell Count < 500 for "COc1ccc(NS(=O)(=O)c2sc3ccc(Cl)cc3c2C)cc1N1CCNCC1.Cl"
## Output TRUE

## Input Answer whether the molecule "CCOc1cc(N2CCC(O)CC2)ccc1Nc1ncc2c(n1)N(C1CCCC1)CCC(=O)N2C" has Total Cell Count strictly less than 500
## Output FALSE

## Input Item "Nc1nc2c(c(N3CCNCC3)n1)CCC1=C2[C@@H]2CCCC[C@@H]2O1" : Total Cell Count beneath 500, strictly?
## Output TRUE

## Input Find out if reported Total Cell Count for "CC(=O)c1cc(-c2cc(C(=O)NC3CC3)ccc2C)c2ncccn12" is less than 500
## Output TRUE

====

Test system: U2OS
Experiment: Multiplex assay against U2OS
Type: toxicity, cell-based
Conditions: human, 24 h, 1 µM, compound concentration 1 uM, replicate 2
readout: Population Fragmented Nuclei (%)
Hi! Could you send only the number? It should be in %, unit omitted.

## Input Please look at this molecule and report its Population Fragmented Nuclei (%): Cc1nc(Cc2cccc(C(F)(F)F)c2)sc1-c1ccc(C(N)=O)nc1 [TP-024n]
## Output 5

## Input Give Population Fragmented Nuclei (%) for "CC(=O)c1cc(-c2cc(C(=O)NC3CC3)ccc2C)c2ncccn12"
## Output 3

## Input Look up Population Fragmented Nuclei (%) of "Cc1cc2c(cc1N1C(=O)c3cccc4c(CCCO)ccc(c34)C1=O)n(C)c(=O)n2C" and report it.
## Output 7

## Input Give Population Fragmented Nuclei (%) for CCOc1cc2ncc(C#N)c(Nc3ccc(OCc4cccc(F)c4)c(Cl)c3)c2cc1NC(=O)/C=C/CN(C)C [HKI-357]
## Output 9

## Input Tell us which Population Fragmented Nuclei (%) value is on record for CCc1cc2c(cc1CC)CC(NC[C@H](O)c1ccc(O)c3[nH]c(=O)ccc13)C2 [INDACATEROL]
## Output 4

## Input Tell me measured Population Fragmented Nuclei (%) for CC(C)(C)c1cnc(CSc2cnc(NC(=O)C3CCNCC3)s2)o1 [BMS-387032] please.
## Output 11

## Input Item "Nc1nc2c(c(N3CCNCC3)n1)CCC1=C2[C@@H]2CCCC[C@@H]2O1" : provide Population Fragmented Nuclei (%)
## Output 22

====

System: HEK-293T
Assay: Multiplex assay against HEK293T
Format: toxicity, cell-based
Conditions: human, 12 h, 10 µM, compound concentration 10 uM, replicate 1
readout: Population Normal (%)
Unit % implied. Number only.

## Input Supply reported Population Normal (%) belonging to this molecule: CN(C)C/C=C/C(=O)Nc1cc2c(Nc3ccc(F)c(Cl)c3)ncnc2cc1O[C@H]1CCOC1.O=C(O)/C=C\C(=O)O.O=C(O)/C=C\C(=O)O [AFATINIB DIMALEATE]
## Output 81

## Input Output Population Normal (%) of "CNc1oc(-c2cccc3ccccc23)nc1C#N"
## Output 58

## Input Answer with the recorded Population Normal (%) for the molecule listed here: "CCOc1cc(N2CCC(O)CC2)ccc1Nc1ncc2c(n1)N(C1CCCC1)CCC(=O)N2C"
## Output 86

## Input Fill in Population Normal (%) for record "N#Cc1cnc(Nc2cc(NC[C@H]3CNCCO3)c(C(F)(F)F)cn2)cn1"
## Output 85

## Input Hello, please tell me recorded Population Normal (%) for this one: "CC(C)N1CCC(C)(C)c2cc(C#Cc3ccc(C(=O)O)cc3)ccc21"
## Output 35

## Input # return recorded Population Normal (%) for entry "COc1cc2c(Nc3ccc(NC(=O)c4ccccc4)cc3)ncnc2cc1OCCCN1CCOCC1"
## Output 88

## Input Fill in Population Normal (%) for record "CNC(=O)c1cc(Oc2ccc(NC(=O)Nc3cc(C(C)(C)C)nn3-c3ccc4ncccc4c3)c(F)c2)ccn1"
## Output 83

## Input Could you please provide reported Population Normal (%) for "O=C(O)c1ccc2cc(-c3ccc(O)c(C45CC6CC(CC(C6)C4)C5)c3)ccc2c1" ? Thanks!
## Output 84

## Input Look up and state reported Population Normal (%) for "Nc1ccc(C(=O)Nc2cccc(-c3nc(N4CCOCC4)c4oc5ncccc5c4n3)c2)cn1"
## Output 74

## Input Query Population Normal (%) for "Cc1cc2c(cc1N1C(=O)c3cccc4c(CCCO)ccc(c34)C1=O)n(C)c(=O)n2C"
## Output 90

## Input Please list Population Normal (%) recorded for the molecule "c1ccc2oc(-c3csc(C4CCN(Cc5nc6ncccc6[nH]5)CC4)n3)cc2c1"
## Output 85

====

System: Fibroblast
Assay: Multiplex assay against human fibroblast
Type: toxicity, cell-based
Details: 48 h, 10 µM, compound concentration 10 uM, replicate 1
For each of the molecules below, state its Total Cell Count.
Respond numerically, and do not add a unit to the figure.

## Input Output reported Total Cell Count of the molecule "COc1cc(N2CCC(N(C)C)CC2)ccc1Nc1ncc(Cl)c(Nc2ccccc2P(C)(C)=O)n1" on Fibroblast.
## Output 94

## Input # lookup: Fibroblast Total Cell Count, key = "Cc1cc2c(cc1N1C(=O)c3cccc4c(CCCO)ccc(c34)C1=O)n(C)c(=O)n2C"
## Output 120

## Input Give Total Cell Count only, for "COc1ccc(NS(=O)(=O)c2sc3ccc(Cl)cc3c2C)cc1N1CCNCC1.Cl" , using Fibroblast data.
## Output 191

## Input Specify Total Cell Count for "CCc1cc2c(cc1CC)CC(NC[C@H](O)c1ccc(O)c3[nH]c(=O)ccc13)C2" , system Fibroblast.
## Output 237

## Input Provide Total Cell Count, recorded with Fibroblast, of "Nc1ccc(C(=O)Nc2cccc(-c3nc(N4CCOCC4)c4oc5ncccc5c4n3)c2)cn1"
## Output 516

## Input Look up and report Total Cell Count, with Fibroblast as system, for Cc1nc(Cc2cccc(C(F)(F)F)c2)sc1-c1ccc(C(N)=O)nc1 [TP-024n]
## Output 148

====

Tested on: U2OS
Assay: Multiplex assay against U2OS
Format: toxicity, cell-based
Conditions: human, 24 h, 10 µM, compound concentration 10 uM, replicate 2
The class of a record is decided solely by its measured Population Membrane Permeable-Phenotype (%); consult bottom (below 8%), middle (8% to below 20%), top (20% or more)

## Input State the band of "Cc1cc2c(cc1N1C(=O)c3cccc4c(CCCO)ccc(c34)C1=O)n(C)c(=O)n2C"
## Output top

## Input Record "O=C(O)c1ccc2cc(-c3ccc(O)c(C45CC6CC(CC(C6)C4)C5)c3)ccc2c1" — which class?
## Output bottom

## Input Looking at CCn1c(-c2nonc2N)nc2cnc(Oc3cccc(NC(=O)c4ccc(OCCN5CCOCC5)cc4)c3)cc21 [GSK-269962A] , which class would you pick?
## Output top

## Input Consider "c1ccc2oc(-c3csc(C4CCN(Cc5nc6ncccc6[nH]5)CC4)n3)cc2c1" . To which Population Membrane Permeable-Phenotype (%) class does it belong?
## Output middle

## Input Into which bin does this molecule go? "CCCn1c(=O)c2[nH]c(C34CC5CC(CC3C5)C4)nc2n(CCC)c1=O"
## Output top

## Input Hi, small favor: classify "Nc1nc2c(c(N3CCNCC3)n1)CCC1=C2[C@@H]2CCCC[C@@H]2O1" by its Population Membrane Permeable-Phenotype (%) when you get a moment.
## Output top

## Input Which category does the recorded Population Membrane Permeable-Phenotype (%) put "CC(C)N1CCC(C)(C)c2cc(C#Cc3ccc(C(=O)O)cc3)ccc21" in?
## Output bottom

## Input Could you tell me which band "CCOc1cc(N2CCC(O)CC2)ccc1Nc1ncc2c(n1)N(C1CCCC1)CCC(=O)N2C" belongs to?
## Output bottom

## Input Band assignment needed for "CC(C)(C)c1cnc(CSc2cnc(NC(=O)C3CCNCC3)s2)o1" please.
## Output top

## Input Which Population Membrane Permeable-Phenotype (%) category applies to "Cl.Cl.NC1(c2ccc(-c3nc4ccn5c(=O)[nH]nc5c4cc3-c3ccccc3)cc2)CCC1" here?
## Output middle

====

Test system: Fibroblast
Experiment: Multiplex assay against human fibroblast
Format: toxicity, cell-based
Settings: 48 h, 1 µM, compound concentration 1 uM, replicate 2
readout: Population Mitotic Cells (%)
Dear colleague, please return just the value in %, with no unit written.

## Input Write Population Mitotic Cells (%) of "COc1cc2c(NC3CCN(C(C)C)CC3)nc(N3CCC(F)(F)CC3)nc2cc1OCCCN1CCCC1" ; system used: Fibroblast
## Output 30

## Input System Fibroblast. Read-out Population Mitotic Cells (%). Item O=C(O)c1ccc2cc(-c3ccc(O)c(C45CC6CC(CC(C6)C4)C5)c3)ccc2c1 [O-DEMETHYLATED ADAPALENE] . Report value.
## Output 28

## Input State recorded Population Mitotic Cells (%) with Fibroblast, entry Cc1nc(Cc2cccc(C(F)(F)F)c2)sc1-c1ccc(C(N)=O)nc1 [TP-024n] , no comment.
## Output 66

## Input Quote Fibroblast Population Mitotic Cells (%) for entry "CC(=O)c1cc(-c2cc(C(=O)NC3CC3)ccc2C)c2ncccn12" .
## Output 66
